test: TEAD-YAP interaction inhibition, primary screen, TEAD-YAP interaction inhibitor project, luminescence, HEK-TIYL cells (AID 1259422); details: TEAD-Gal4/YAP UAS-luciferase luminescence, at 9.12 µM;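 further: 0% = median of test compound wells and 100% = reference inhibitor wells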
Among all 640,000 compounds or so, about 9,300 (1.5%) were called active. No stated cut-off is given here; in the data, active means inhibition above about 32%; inactive means the rest. The list comes from a sample in which actives are over-represented; it also holds close analogues and randomly drawn compounds.
Respond with a class label; see active, inactive

Here's what some known entries look like.
{"compound": "COc1ccc(Nc2ncnc3ccc(Br)cc23)cc1", "assignedClass": "active"}
{"compound": "COc1ccc(-c2coc3cc(OCCN4CCOCC4)ccc3c2=O)cc1OC", "assignedClass": "active"}
{"compound": "O=C(/C=C/c1ccc(F)cc1)NCCCCNC(=O)/C=C/c1ccc(F)cc1", "assignedClass": "inactive"}
{"compound": "Cc1ccccc1CN1CCN2C(=O)[C@H](Cc3ccc(O)cc3)NC(=O)[C@H]2C1", "assignedClass": "inactive"}
{"compound": "Cc1cc(C)nc(NS(=O)(=O)c2ccc(NC(=O)/C=C/c3ccc(F)cc3)cc2)n1", "assignedClass": "inactive"}

Prompt: Hello, I am checking results. What call was entered for `COc1ccc(/C=C2/N=C(c3cccc4ccccc34)OC2=O)c(OC)c1OC` ?
Completion: inactive

Prompt: Hello, I am checking results. What call was entered for `COc1ccc(-c2noc(CN(Cc3ccccc3)CC3CC3)n2)c(OC)c1OC` ?
Completion: inactive

Prompt: Hello, I am checking results. What call was entered for `O=C(/C=C/c1ccc(F)cc1)Nc1ccccc1F` ?
Completion: active

* * *

assay: TEAD-YAP interaction inhibition, primary screen, TEAD-YAP interaction inhibitor project, luminescence, HEK-TIYL cells (AID 1259422); conditions: TEAD-Gal4/YAP UAS-luciferase luminescence, at 9.12 µM, hits give high values;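 further: 0% = median of test compound wells and 100% = reference inhibitor wells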
Among all 640,000 compounds or so, about 9,300 (1.5%) were called active. Shown is part of a subset that was picked to be rich in actives.
Listing: inhibition of selected compounds
Express your answer in %, writing the number without its unit.

Examples from the recorded data:
{"compound": "CCOc1ccccc1C(=O)NCc1ccccc1", "inhibition [%]": -14.4}
{"compound": "Nc1nc(N)c2ncn(C3OC(CO)C(O)C3O)c2n1 (stereo unspecified)", "inhibition [%]": -3.32}
{"compound": "NC(=O)CN(c1cc(C(F)(F)F)ccc1Cl)S(=O)(=O)c1ccccc1", "inhibition [%]": -1.66}

Briefly, inhibition measured for O=c1cnn(C2OC(CO)C(O)C2O)c(=O)[nH]1 (stereo unspecified) : 74.7

Briefly, inhibition measured for `CCOCC(=O)NCc1ccc2c(c1)cc(C)n2C` : -6.23

Briefly, inhibition measured for `COCCNC(=O)c1ccc(Sc2ccc(OC)cc2)c([N+](=O)[O-])c1` : -17

Briefly, inhibition measured for `Cc1ccc(/C=C2\SC(=S)N(c3cccc(O)c3)C2=O)o1` : -1.97

Briefly, inhibition measured for `O=C(O)c1cc(N2C(=O)/C(=C/c3ccc(O)cc3)SC2=S)ccc1O` : 1.88

Briefly, inhibition measured for Nc1nc(=O)n(C2OC(CO)C(O)C2O)cc1Br (stereo unspecified) : 5.2

Briefly, inhibition measured for CCC(C)NC(=O)c1ccc(S(=O)(=O)c2ccc(OC)cc2)c([N+](=O)[O-])c1 (stereo unspecified) : 32.4

Briefly, inhibition measured for CCC(C)NC(=O)c1ccc(N2CCC3(CC2)OCCO3)c([N+](=O)[O-])c1 (stereo unspecified) : -13.8

* * *

test: TEAD-YAP interaction inhibition, primary screen, TEAD-YAP interaction inhibitor project, luminescence, HEK-TIYL cells (AID 1259422); settings: TEAD-Gal4/YAP UAS-luciferase luminescence, at 9.12 µM, hits give high values;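 further: 0% = median of test compound wells and 100% = reference inhibitor wells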
About 9,300 (1.5%) of roughly 640,000 compounds were called active. The entries come from a sample that favours actives as a whole.
readoutName: inhibition (%)
Express your answer in %, writing the number without its unit.

Examples from the recorded data:
{"molecule": "CC(C)n1c(Nc2cnccn2)nc2c(NCCc3ccc(O)cc3)ncnc21", "inhibition, %": 14.1}
{"molecule": "O=S(=O)(/C=C/c1ccccc1)N1CCN(CC(O)COCc2ccccc2)CC1 (configuration not stated)", "inhibition, %": 1.15}
{"molecule": "C=CCN1C(=S)NC2CC1(C)Oc1c(OC)cccc12 (configuration not stated)", "inhibition, %": 2.23}

Query molecule follows.
Briefly, inhibition measured for `O=C1CCCN1CCCNc1nc(Nc2ccncn2)nc2c1ncn2-c1ccsc1` : 50.5

* * *

test: TEAD-YAP interaction inhibition, primary screen, TEAD-YAP interaction inhibitor project, luminescence, HEK-TIYL cells (AID 1259422); conditions: TEAD-Gal4/YAP UAS-luciferase luminescence, at 9.12 µM;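 further: 0% = median of test compound wells and 100% = reference inhibitor wells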
Screen size: about 640,000 compounds; about 9,300 (1.5%) were called active. Cut-off read from the data, not from the text of the source: active = inhibition above about 32%; inactive = the rest. The sample holds actives, similar compounds and a random draw of the others, so the mix is not that of the screen.
Respond with a class label; see True (active), False (inactive)

Here's what some known entries look like.
{"compound": "O=C(Nc1cccc(NC(=O)c2ccc(-c3ccccc3[N+](=O)[O-])o2)c1)c1ccco1", "assignedClass": "False"}
{"compound": "COc1ccccc1-n1nnnc1SCC(=O)c1ccc(Br)s1", "assignedClass": "False"}
{"compound": "CCOc1ccccc1Nc1nnc(Cc2ccc(OC)cc2)c(=O)[nH]1", "assignedClass": "False"}
{"compound": "Cc1ccc(S(=O)(=O)N2CCCCC2CCNC(=O)C(=O)NCCO)cc1 (stereo not given)", "assignedClass": "False"}
{"compound": "O=c1c(-c2ccon2)coc2cc(O)ccc12", "assignedClass": "False"}
{"compound": "CCc1ccccc1N(CC(=O)Nc1cc(Cl)ccc1C)S(C)(=O)=O", "assignedClass": "False"}

Prompt: Hello, I am checking results. What call was entered for `OCCNCCCOc1ccc(I)cc1` ?
Completion: False

Prompt: Hello, I am checking results. What call was entered for `Nc1nc(Cn2c(-c3nonc3N)nc3ccccc32)nc(N2CCCCC2)n1` ?
Completion: False

Prompt: Hello, I am checking results. What call was entered for `CCCn1c(=O)[nH]c2c(C(N)=O)nc(-c3cn(C)nc3C)nc21` ?
Completion: False

Prompt: Hello, I am checking results. What call was entered for `COc1ccc(Cc2nnc(N/N=C/c3ccccc3O)[nH]c2=O)cc1OC` ?
Completion: True

Prompt: Hello, I am checking results. What call was entered for `COc1ccc(-c2cnn3c(N4CCOCC4)ccnc23)c(OC)c1` ?
Completion: False

Prompt: Hello, I am checking results. What call was entered for `COC(=O)c1cccc(NS(=O)(=O)c2ccc3ccccc3c2)c1C` ?
Completion: False

* * *

assay: TEAD-YAP interaction inhibition, primary screen, TEAD-YAP interaction inhibitor project, luminescence, HEK-TIYL cells (AID 1259422); details: TEAD-Gal4/YAP UAS-luciferase luminescence, at 9.12 µM;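 further: 0% = median of test compound wells and 100% = reference inhibitor wells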
Screen size: about 640,000 compounds; about 9,300 (1.5%) were called active. Cut-off read from the data, not from the text of the source: active = inhibition above about 32%; inactive = the rest. This excerpt belongs to a sample that is enriched for actives.
Respond with a class label; see Y = active, N = inactive

{"compound": "CC[n+]1c(/C=C/c2ccc(N(C)C)cc2)oc2ccccc21", "assignedClass": "N"}

Prompt: Hello, I am checking results. What call was entered for COc1ccc(-n2nc3c(c2NC(=O)c2cc([N+](=O)[O-])ccc2Cl)CS(=O)C3)cc1 (stereo not given) ?
Completion: Y

Prompt: Hello, I am checking results. What call was entered for `CC[n+]1cc(C)ccc1/C=C/c1ccc(N(C)C)cc1` ?
Completion: Y

Prompt: Hello, I am checking results. What call was entered for CN(C)c1ccc(C=NCC(O)CN=Cc2ccc(N(C)C)cc2)cc1 (stereo not given) ?
Completion: N

Prompt: Hello, I am checking results. What call was entered for `N#Cc1c(-n2ncnc2-c2ccc3c(c2)OCO3)sc2c1CCCC2` ?
Completion: N

Prompt: Hello, I am checking results. What call was entered for `O=C(Cn1cnc2c(nnn2-c2cccc(F)c2)c1=O)N1CCCCC1` ?
Completion: N

Prompt: Hello, I am checking results. What call was entered for `Cc1ccc(F)cc1NC(=O)Cc1nn(C)c(=O)c2ccccc12` ?
Completion: N

Prompt: Hello, I am checking results. What call was entered for `COc1cc(Nc2nc(-c3ccc(OC)c(OC)c3)nc3ccccc23)cc(OC)c1` ?
Completion: Y

Prompt: Hello, I am checking results. What call was entered for `CCOC(=O)c1c(NC(=O)CN2CCCC2)sc(C)c1-c1ccccc1` ?
Completion: N

Prompt: Hello, I am checking results. What call was entered for `N#Cc1c(NC(=O)c2cc([N+](=O)[O-])nn2Cc2ccccc2)sc2c1CCC2` ?
Completion: N

* * *

test: TEAD-YAP interaction inhibition, primary screen, TEAD-YAP interaction inhibitor project, luminescence, HEK-TIYL cells (AID 1259422); details: TEAD-Gal4/YAP UAS-luciferase luminescence, at 9.12 µM, hits give high values;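 further: 0% = median of test compound wells and 100% = reference inhibitor wells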
About 9,300 (1.5%) of roughly 640,000 compounds were called active. What follows is part of a selection rich in actives, with near analogues and random picks from the rest.
Assign class by inhibition: not lower than -10% means yes (1); lower than -10% means no (0).

Here's what some known entries look like.
{"compound": "COc1ccc2nc3c(nc2c1)C(=O)c1ccccc1C3=O", "assignedClass": "no (0)"}
{"compound": "COC(=O)c1cc(OC)c(OC)cc1NC(=O)c1cc2ccccc2oc1=O", "assignedClass": "yes (1)"}
{"compound": "Cc1ccc2c(c1)C(=O)c1cc3ccccc3nc1-2", "assignedClass": "no (0)"}
{"compound": "COc1cccc(CCC(=O)N2CCC(CCC(=O)N(C)Cc3ccccc3)CC2)c1", "assignedClass": "yes (1)"}
{"compound": "Cc1ccc2nc3c(nc2c1)C(=O)c1ccccc1-3", "assignedClass": "yes (1)"}

Let's switch to this compound now.
Prompt: Given the entry COc1ccc2c(c1)CC(C(=O)Nc1ccc(-c3ccncc3)cc1OC(C)CN(C)C)CO2 (stereo unspecified) , answer whether its inhibition meets or surpasses -10%.
Completion: yes (1)

These data points were gathered from PubChem BioAssay AID1259422.
